Please go through the items and note down their Fold Induction, Z3 Assay, 3.3 uM.
Biological target: Bombyx mori EcR (VP16 fusion, CVBE switch construct) (Bombyx mori)
Sequence (P49881 86-606): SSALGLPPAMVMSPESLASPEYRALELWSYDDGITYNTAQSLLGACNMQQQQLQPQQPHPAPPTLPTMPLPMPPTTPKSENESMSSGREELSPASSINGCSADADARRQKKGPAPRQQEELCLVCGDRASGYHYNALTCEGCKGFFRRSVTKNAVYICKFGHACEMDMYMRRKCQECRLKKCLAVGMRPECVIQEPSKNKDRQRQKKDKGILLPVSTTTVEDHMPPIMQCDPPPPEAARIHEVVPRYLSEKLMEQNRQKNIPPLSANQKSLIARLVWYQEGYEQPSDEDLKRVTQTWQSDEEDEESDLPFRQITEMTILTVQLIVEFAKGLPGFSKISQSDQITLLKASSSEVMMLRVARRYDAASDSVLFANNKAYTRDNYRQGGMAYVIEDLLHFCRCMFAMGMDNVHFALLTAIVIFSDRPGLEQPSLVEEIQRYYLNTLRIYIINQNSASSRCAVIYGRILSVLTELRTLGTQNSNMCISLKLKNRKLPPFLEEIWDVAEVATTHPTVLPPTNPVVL
Sequence (P19793 whole entry partner, the tested form may be a part): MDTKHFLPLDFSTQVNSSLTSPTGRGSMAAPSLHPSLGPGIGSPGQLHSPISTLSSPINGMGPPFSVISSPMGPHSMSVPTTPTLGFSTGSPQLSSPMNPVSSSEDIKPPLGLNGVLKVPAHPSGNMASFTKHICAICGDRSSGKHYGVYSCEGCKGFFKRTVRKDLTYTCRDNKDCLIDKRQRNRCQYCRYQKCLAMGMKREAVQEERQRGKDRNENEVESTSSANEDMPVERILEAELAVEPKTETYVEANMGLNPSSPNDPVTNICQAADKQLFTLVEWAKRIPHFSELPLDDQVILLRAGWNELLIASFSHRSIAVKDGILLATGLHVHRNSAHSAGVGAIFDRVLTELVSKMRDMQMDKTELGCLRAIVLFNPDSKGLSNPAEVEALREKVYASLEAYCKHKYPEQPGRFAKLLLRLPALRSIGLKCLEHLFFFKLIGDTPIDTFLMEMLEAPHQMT
Assay: Z3 Assay (HEK-293 cells with CVBE and 6XEcRE LacZ, β-galactosidase reporter)
Conditions: 3.3 uM ligand; ligand treated / DMSO treated cells; average of two wells
One number for each entry.

Worked cases, Fold Induction, Z3 Assay, 3.3 uM given:
COc1cc(C(=O)N(NC(=O)c2ccc3c(c2Cl)COCO3)C(C)(C)C)cc(OC)c1C
118
CCc1c(C(=O)NN(C(=O)c2ccccc2OC)C(C)(C)C)ccc2c1OCCO2 [RG-115244]
283
CCc1c(OC)cccc1C(=O)NN(C(=O)c1cc(OC)c(OC)c(OC)c1)C(C)(C)C
259
CCc1ccc(C(=O)NN(C(=O)c2ccc(F)cc2)C(C)(C)C)c(F)c1
1527
COc1cccc(C(=O)NN(C(=O)c2cc(C)cc(C)c2)C(C)(C)C)c1[N+](=O)[O-]
276
Cc1cc(C)cc(C(=O)N(NC(=O)c2ccc3c(c2Br)OCCO3)C(C)(C)C)c1
866
CCc1ccc(C(=O)NN(C(=O)c2cc(C)cc(C)c2)C(C)(C)C)cc1Cl
796
CCc1c(C(=O)NN(C(=O)c2ccccc2OC)C(C)(C)C)ccc2c1OCCO2 [RG-100690]
779

Could you tell me Fold Induction, Z3 Assay, 3.3 uM for each of these compounds? They are listed below.
1. Cc1c(C(=O)NN(C(=O)c2cccc(F)c2)C(C)(C)C)ccc2c1CCCO2
2. CCc1c(OC)cccc1C(=O)NN(C(=O)c1cc2ccccc2n1C)C(C)(C)C
3. CCc1c(OC)cccc1C(=O)NN(C(=O)c1ccc(Cl)cc1OC)C(C)(C)C
4. CCc1c(OC)cccc1C(=O)NN(C(=O)c1cc(OC)ccc1OC)C(C)(C)C
5. CCc1ccc(C(=O)NN(C(=O)c2cc(C)c(C)c(Cl)c2)C(C)(C)C)cc1
6. CCc1ccc(C(=O)NN(C(=O)c2ccccc2OC)C(C)(C)C)c(F)c1

Key:
158
68
886
947
832
204

I have 3 compounds here; please give me Fold Induction, Z3 Assay, 3.3 uM for each one.
1. COc1cccc(C(=O)NN(C(=O)c2cccc(C)c2)C(C)(C)C)c1C
2. Cc1c(O)cccc1C(=O)NN(C(=O)c1cc(Cl)nc(Cl)c1)C(C)(C)C
3. Cc1cc(C)cc(C(=O)N(NC(=O)c2ccc3cc[nH]c3c2)C(C)(C)C)c1

Key:
1: 1294; 2: 31; 3: 13

----------
Test system: mutated ecdysone receptor-based gene switch
Assay: In vivo SEAP induction, ligand by IP injection
Set-up: species or system C57BL/6 mouse
Settings: mouse serum, IP 2.6 μmol ligand, day 3 after ligand
measured endpoint: Secreted Alkaline Phosphatase (percentage of GS ™-E ligand induction) Day 3

COc1cc(C(=O)N(NC(=O)c2ccc3c(c2C)OCCO3)C(C)(C)C)cc(OC)c1O
3 percentage of GS ™-E ligand induction

Here's the next entry for you.
Exercise: Would you kindly share the measured Secreted Alkaline Phosphatase (percentage of GS ™-E ligand induction) Day 3 for COc1cccc(C(=O)NN(C(=O)c2cc(Cl)c(F)c(Cl)c2)C(C)(C)C)c1C ?
Key: 81 percentage of GS ™-E ligand induction
